# inhibition at 6 µM per entry
- system_under_test: wild type human RORγt LBD (Homo sapiens, UniProt P51449)
- Construct: expressed in transfected cells; host or cells: HEK293T
- Sequence (P51449 269-508 limits assumed): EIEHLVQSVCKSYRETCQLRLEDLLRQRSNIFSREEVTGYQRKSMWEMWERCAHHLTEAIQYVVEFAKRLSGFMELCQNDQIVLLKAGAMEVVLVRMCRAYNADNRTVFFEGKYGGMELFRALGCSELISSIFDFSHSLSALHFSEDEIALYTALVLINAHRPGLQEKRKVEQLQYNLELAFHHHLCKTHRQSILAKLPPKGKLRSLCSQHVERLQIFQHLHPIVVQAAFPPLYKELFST
- measurement_description: RORγt Reporter Assay (GAL4-RORγt LBD luciferase in HEK293T cells)
- Format: cell-based
- test_conditions: HEK-293T, read-out: RORγt reporter Assay, % inhibition @ 6 µM, @ 6 µM; HEK293T cells
assay_endpoint: inhibition at 6 µM (%)

molecule="COc1nc2ccc(C(O)(c3ccc(C(F)(F)F)nc3)c3cncn3C)cc2c(Cl)c1-c1cnn(C)c1 (stereo not drawn)" assay_endpoint="inhibition at 6 µM" measured=87
molecule="Cc1cc(C(O)(c2ccc(C(F)(F)F)nc2)c2cncn2C)cc2c(C#N)c(-c3ccccc3)c(C#N)nc12 (single isomer, unassigned) [Example 25b]" assay_endpoint="inhibition at 6 µM" measured=87
molecule="COc1nc2ccc(C(O)(c3cnnn3C)c3cnc(C)n3C)cc2c(Cl)c1-c1ccccc1 (single isomer, unassigned) [Example 41b]" assay_endpoint="inhibition at 6 µM" measured=102
molecule="CN(C)c1c(-c2ccccc2)c(Cl)nc2ccc(C(O)(c3ccccn3)c3cncn3C)cc12 (stereo not drawn)" assay_endpoint="inhibition at 6 µM" measured=81
molecule="COc1nc2ccc(C(O)(c3ccc(C(F)(F)F)nc3)c3cncn3C)cc2c(Cl)c1-c1ccc(Cl)s1 (stereo not drawn) [Example 14a]" assay_endpoint="inhibition at 6 µM" measured=55
molecule="COc1nc2ccc(C(O)(c3cncn3C)C3CCN(C(C)=O)CC3)cc2c(Cl)c1-c1cccc(C(F)(F)F)c1 (single isomer, unassigned)" assay_endpoint="inhibition at 6 µM" measured=89
